# maps each entry to its MIC
Tested on: Acinetobacter baumannii
Assay: Antibacterial activity against Acinetobacter baumannii clinical isolate after 20 hrs by broth microdilution method
Assay type: functional
Write the number in µg/mL without appending the unit.

{"molecule": "C[C@H](O)[C@]1(NC(=O)N(C)C)[C@@H](N)[C@H](Nc2cccc(F)c2)[C@](O)(CO)[C@]1(C)O", "u": "µg/mL", "observed.measurement": 64}
{"molecule": "CC(=O)c1cccc(N[C@H]2[C@H](N)[C@@](NC(=O)N(C)C)([C@H](C)O)[C@@](C)(O)[C@@]2(O)COC(=O)c2c(C)cccc2O)c1 [PACTAMYCIN]", "u": "µg/mL", "observed.measurement": 16}
{"molecule": "C[C@H](O)[C@]1(NC(=O)N(C)C)[C@@H](N)[C@H](Nc2cccc(C(F)(F)F)c2)[C@](O)(CO)[C@]1(C)O", "u": "µg/mL", "observed.measurement": 64}
{"molecule": "CC(=O)c1cccc(N[C@H]2[C@H](N)[C@@](NC(=O)N(C)C)([C@H](C)O)[C@@](C)(O)[C@@]2(O)CO)c1", "u": "µg/mL", "observed.measurement": 128}

Incoming: Read off the recorded MIC for COc1cccc(N[C@H]2[C@H](N)[C@@](NC(=O)N(C)C)([C@H](C)O)[C@@](C)(O)[C@@]2(O)CO)c1
Outgoing: 128

====

# maps each entry to its MIC
Tested on: Escherichia coli
Assay: Antibacterial activity against Escherichia coli ATCC 25922 after 20 hrs by broth microdilution method
Type: functional
Details: ATCC 25922, 20 h

Below are worked cases with known answers.
{"compound": "CC(=O)c1cccc(N[C@H]2[C@H](N)[C@]3(NC(=O)O[C@H]3C)[C@@](C)(O)[C@@]2(O)CO)c1", "MIC": "> 128 mg/L"}
{"compound": "C[C@H](O)[C@]1(NC(=O)N(C)C)[C@@H](N)[C@H](Nc2ccccc2)[C@](O)(CO)[C@]1(C)O", "MIC": "32 mg/L"}

Please turn your attention to the following entry.
Incoming: Read off the recorded MIC for CCN(CC)C(=O)N[C@@]1([C@H](C)O)[C@@H](N)[C@H](Nc2cccc(C(C)=O)c2)[C@](O)(CO)[C@]1(C)O
Outgoing: > 128 mg/L

====

System: Plasmodium falciparum
Experiment: Antimalarial activity against Plasmodium falciparum Dd2 after 72 hrs by SYBR Green-based fluorescence assay
Type: functional, organism-based
Settings: Dd2, 72 h
pIC50: −log10 of the molar value.
parameter: pIC50

{"molecule": "CC(=O)c1cccc(N[C@H]2[C@H](N)[C@@](NC(=O)N(C)C)([C@H](C)O)[C@@](C)(O)[C@@]2(O)CO)c1", "observed.measurement": "> 8.60"}

Incoming: Provide the reported pIC50 (system: Plasmodium falciparum) for CC(=O)c1cccc(N[C@H]2[C@H](N)[C@]3(NC(=O)O[C@H]3C)[C@@](C)(O)[C@@]2(O)COC(=O)c2c(C)cccc2O)c1 [PACTAMYCATE]
Outgoing: < 5.60

Incoming: Provide the reported pIC50 (system: Plasmodium falciparum) for CC(=O)c1cccc(N[C@H]2[C@H](N)[C@@](NC(=O)N(C)C)([C@H](C)O)[C@@](C)(O)[C@@]2(O)COC(=O)c2c(C)cccc2O)c1
Outgoing: > 8.60

Incoming: Provide the reported pIC50 (system: Plasmodium falciparum) for CC(=O)c1cccc(N[C@H]2[C@H](N)[C@]3(NC(=O)O[C@H]3C)[C@@](C)(O)[C@@]2(O)CO)c1
Outgoing: < 5.60

Incoming: Provide the reported pIC50 (system: Plasmodium falciparum) for CC(=O)c1cccc(N[C@H]2[C@H](N)[C@@](NC(=O)N3CCOCC3)([C@H](C)O)[C@@](C)(O)[C@@]2(O)CO)c1
Outgoing: < 5.60

====

Test system: Staphylococcus aureus
Test: Antibacterial activity against Staphylococcus aureus ATCC 25923 after 20 hrs by broth microdilution method
Type: functional
Conditions: ATCC 25923, 20 h
# maps each entry to its MIC
Write the number in µg/mL without appending the unit.

Below are worked cases with known answers.
{"molecule.smiles": "CC(=O)c1cccc(N[C@H]2[C@H](N)[C@@](NC(=O)N(C)C)([C@H](C)O)[C@@](C)(O)[C@@]2(O)CO)c1", "MIC, µg/mL": 2}
{"molecule.smiles": "C[C@H](O)[C@]1(NC(=O)N(C)C)[C@@H](N)[C@H](Nc2cccc(F)c2)[C@](O)(CO)[C@]1(C)O", "MIC, µg/mL": 4}

Please turn your attention to the following entry.
Incoming: Read off the recorded MIC for C[C@H](O)[C@]1(NC(=O)N(C)C)[C@@H](N)[C@H](Nc2ccccc2)[C@](O)(CO)[C@]1(C)O
Outgoing: 64

====

Test system: Acinetobacter baumannii
Assay: Antibacterial activity against Acinetobacter baumannii clinical isolate after 20 hrs by broth microdilution method
Assay type: functional
# maps each entry to its MIC

Below are worked cases with known answers.
{"compound": "CC(=O)c1cccc(N[C@H]2[C@H](N)[C@@](NC(=O)N3CCOCC3)([C@H](C)O)[C@@](C)(O)[C@@]2(O)CO)c1", "observed.measurement": "> 128 µg/mL"}
{"compound": "CC(=O)c1cccc(N[C@H]2[C@H](N)[C@@](NC(=O)N3CCCC3)([C@H](C)O)[C@@](C)(O)[C@@]2(O)CO)c1", "observed.measurement": "> 128 µg/mL"}
{"compound": "CC(=O)c1cccc(N[C@H]2[C@H](N)[C@]3(NC(=O)O[C@H]3C)[C@@](C)(O)[C@@]2(O)CO)c1", "observed.measurement": "> 128 µg/mL"}

Incoming: Read off the recorded MIC for CC(=O)c1cccc(N[C@H]2[C@H](N)[C@]3(NC(=O)O[C@H]3C)[C@@](C)(O)[C@@]2(O)COC(=O)c2c(C)cccc2O)c1 [PACTAMYCATE]
Outgoing: > 128 µg/mL

Incoming: Read off the recorded MIC for C[C@H](O)[C@]1(NC(=O)N(C)C)[C@@H](N)[C@H](Nc2ccccc2)[C@](O)(CO)[C@]1(C)O
Outgoing: > 128 µg/mL

Incoming: Read off the recorded MIC for CC(=O)c1cccc(N[C@H]2[C@H](N)[C@@](NC(=O)N3CCCCC3)([C@H](C)O)[C@@](C)(O)[C@@]2(O)CO)c1
Outgoing: > 128 µg/mL

Incoming: Read off the recorded MIC for CCN(CC)C(=O)N[C@@]1([C@H](C)O)[C@@H](N)[C@H](Nc2cccc(C(C)=O)c2)[C@](O)(CO)[C@]1(C)O
Outgoing: > 128 µg/mL

====

Tested on: Escherichia coli
Test: Antibacterial activity against Escherichia coli ATCC 25922 after 20 hrs by broth microdilution method
Format: functional
Details: ATCC 25922, 20 h
# maps each entry to its MIC
Write the number in µg/mL without appending the unit.

{"compound": "CC(=O)c1cccc(N[C@H]2[C@H](N)[C@@](NC(=O)N(C)C)([C@H](C)O)[C@@](C)(O)[C@@]2(O)CO)c1", "parameter": "MIC", "u": "µg/mL", "observed.measurement": 4}

Incoming: Read off the recorded MIC for CC(=O)c1cccc(N[C@H]2[C@H](N)[C@@](NC(=O)N(C)C)([C@H](C)O)[C@@](C)(O)[C@@]2(O)COC(=O)c2c(C)cccc2O)c1 [PACTAMYCIN]
Outgoing: 16

====

Test system: Escherichia coli
Assay: Antibacterial activity against Escherichia coli ATCC 25922 after 20 hrs by broth microdilution method
Assay type: functional
Conditions: ATCC 25922, 20 h
parameter: MIC

{"compound": "CC(=O)c1cccc(N[C@H]2[C@H](N)[C@@](NC(=O)N3CCOCC3)([C@H](C)O)[C@@](C)(O)[C@@]2(O)CO)c1", "parameter": "MIC", "observed.measurement": "> 128 µg/mL"}
{"compound": "CC(=O)c1cccc(N[C@H]2[C@H](N)[C@@](NC(=O)N3CCCCC3)([C@H](C)O)[C@@](C)(O)[C@@]2(O)CO)c1", "parameter": "MIC", "observed.measurement": "> 128 µg/mL"}

Incoming: Provide the reported MIC (system: Escherichia coli) for CC(=O)c1cccc(N[C@H]2[C@H](N)[C@]3(NC(=O)O[C@H]3C)[C@@](C)(O)[C@@]2(O)COC(=O)c2c(C)cccc2O)c1 [PACTAMYCATE]
Outgoing: > 128 µg/mL
